Values from patent US10487068B2

// IC50 collected for RORc ligand binding domain (Homo sapiens)
Please give a number only; it is taken to be in nM.

Reference set (6 entries):
compound	measurement_target	IC50 / nM
CC1(C)[C@H]2CC[C@]1(c1nc(C(=O)NCCO)ncc1Cl)c1nnc(-c3c(F)cccc3F)cc12 [Example 230]	RORc ligand binding domain (Homo sapiens)	55.2
CC1(C)[C@H]2CC[C@]1(c1cncc(-c3nnc[nH]3)n1)c1nnc(-c3c(F)cccc3F)cc12 [Example 104]	RORc ligand binding domain (Homo sapiens)	25.9
CC(C)(O)c1cncc([C@@]23CC[C@@H](c4cc(-c5c(F)cccc5F)nnc42)C3(C)C)n1 [Example 128]	RORc ligand binding domain (Homo sapiens)	21.5
CC(=O)Nc1cncc([C@@]23CC[C@@H](c4cc(-c5c(F)cccc5F)nnc42)C3(C)C)n1 [Example 32]	RORc ligand binding domain (Homo sapiens)	22
CC(C)(O)CNC(=O)c1nccc([C@@]23CC[C@@H](c4cc(-c5c(F)cccc5F)nnc42)C3(C)C)n1 [Example 136]	RORc ligand binding domain (Homo sapiens)	37.1
C[C@H](CO)NC(=O)c1ccnc([C@@]23CC[C@@H](c4cc(-c5c(F)cccc5F)nnc42)C3(C)C)c1 [Example 67]	RORc ligand binding domain (Homo sapiens)	276

**Q:** Recall the recorded IC50 for CC1(C)[C@H]2CC[C@]1(c1cncc(-c3nnc(CO)[nH]3)n1)c1nnc(-c3c(F)cccc3F)cc12 [Example 121] with RORc ligand binding domain (Homo sapiens) and state it.
Sequence (P51449 269-508 limits assumed): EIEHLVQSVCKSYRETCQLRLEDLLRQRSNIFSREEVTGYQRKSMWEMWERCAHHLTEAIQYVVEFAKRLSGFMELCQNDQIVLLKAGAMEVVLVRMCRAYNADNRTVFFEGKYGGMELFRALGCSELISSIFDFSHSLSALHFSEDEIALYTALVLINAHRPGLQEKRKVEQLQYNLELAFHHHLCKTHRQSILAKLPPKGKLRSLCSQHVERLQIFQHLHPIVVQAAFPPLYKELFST
**A:** 27.2

**Q:** Consider next the compound CC(C)(O)c1nnc(-c2cncc([C@@]34CC[C@@H](c5cc(-c6c(F)cccc6F)nnc53)C4(C)C)n2)[nH]1 [Example 203] in the same way.
**A:** 24.3

**Q:** Consider next the compound CC1(C)[C@H]2CC[C@]1(c1ccnc(-c3ccc(N)nc3)n1)c1nnc(-c3c(F)cccc3F)cc12 [Example 403] in the same way.
**A:** 6.8

**Q:** Consider next the compound CC[C@@H](O)c1n[nH]c(-c2cncc([C@@]34CC[C@@H](c5cc(-c6c(F)cccc6F)nnc53)C4(C)C)n2)n1 [Example 278] in the same way.
**A:** 6.8

**Q:** Consider next the compound C[C@H](O)CNC(=O)c1cncc([C@@]23CC[C@@H](c4cc(-c5ccccc5F)nnc42)C3(C)C)n1 [Example 126] in the same way.
**A:** 45.6

* * *

// IC50 collected for RORc ligand binding domain (Homo sapiens)
Please give a number only; it is taken to be in nM.

CC1(C)[C@H]2CC[C@]1(c1ccnc(-n3cnc(CO)n3)n1)c1nnc(-c3c(F)cccc3F)cc12 5.4
Cc1nnc(-c2cccc([C@@]34CC[C@@H](c5cc(-c6c(F)cccc6F)nnc53)C4(C)C)n2)o1 21.6
C[C@@H](O)CNC(=O)c1cncc([C@@]23CC[C@@H](c4cc(-c5c(F)cccc5F)nnc42)C3(C)C)n1 40.9
CC1(C)[C@H]2CC[C@]1(c1cc(C#N)ccn1)c1nnc(-c3c(F)cccc3F)cc12 12.1
CC1(C)[C@H]2CC[C@]1(c1cncc(-c3nc(CO)co3)n1)c1nnc(-c3c(F)cccc3F)cc12 23.3
CC[C@H](O)c1coc(-c2cncc([C@@]34CC[C@@H](c5cc(-c6c(F)cccc6F)nnc53)C4(C)C)n2)n1 8.2

Moving on to another compound below.
**Q:** Which IC50 value is on record for CC1(C)[C@H]2CC[C@]1(c1cnc(C#N)cn1)c1nnc(-c3c(F)cccc3F)cc12 ?
**A:** 1310
